Exercise: for every item that follows, state its recorded pIC50.
system_under_test: α-Glucosidase (Saccharomyces cerevisiae, EC3.2.1.20) (Saccharomyces cerevisiae, UniProt P53341)
Construct: purchased Sigma-Aldrich
test_summary: biochemical
Format: biochemical
assay_conditions: supplement sheet IC50 values; unrounded, unit inferred
// field semantics: pIC50 = negative decimal log of concentration (mol/L)

-- ask Can you look up the measured pIC50 of O=C(Oc1ccc2ccc(=O)oc2c1)c1ccc2[nH]c(-c3ccc(F)cc3F)nc2c1 for me?
-- reply 4.33

-- ask Can you look up the measured pIC50 of Cc1ccc(-c2nc3cc(C(=O)Oc4ccc5ccc(=O)oc5c4)ccc3[nH]2)cc1 for me?
-- reply 4.35

-- ask Can you look up the measured pIC50 of O=C(Oc1ccc2ccc(=O)oc2c1)c1ccc2[nH]c(-c3cccc(Cl)c3Cl)nc2c1 for me?
-- reply 4.34

-- ask Can you look up the measured pIC50 of Cc1c(-c2nc3cc(C(=O)Oc4ccc5ccc(=O)oc5c4)ccc3[nH]2)cccc1[N+](=O)[O-] for me?
-- reply 3.92

-- ask Can you look up the measured pIC50 of O=C(Oc1ccc2ccc(=O)oc2c1)c1ccc2[nH]c(-c3ccc(Cl)cc3)nc2c1 for me?
-- reply 4.57

-- ask Can you look up the measured pIC50 of O=C(Oc1ccc2ccc(=O)oc2c1)c1ccc2[nH]c(-c3ccccc3Cl)nc2c1 for me?
-- reply 4.46

-- ask Can you look up the measured pIC50 of O=C(Oc1ccc2ccc(=O)oc2c1)c1ccc2[nH]c(-c3ccc(F)cc3)nc2c1 for me?
-- reply 4.51

-- ask Can you look up the measured pIC50 of O=C(Oc1ccc2ccc(=O)oc2c1)c1ccc2[nH]c(-c3ccccc3)nc2c1 for me?
-- reply 4.30

---

system_under_test: α-glucosidase (Saccharomyces cerevisiae, UniProt P53341)
Sequence (P53341 whole entry): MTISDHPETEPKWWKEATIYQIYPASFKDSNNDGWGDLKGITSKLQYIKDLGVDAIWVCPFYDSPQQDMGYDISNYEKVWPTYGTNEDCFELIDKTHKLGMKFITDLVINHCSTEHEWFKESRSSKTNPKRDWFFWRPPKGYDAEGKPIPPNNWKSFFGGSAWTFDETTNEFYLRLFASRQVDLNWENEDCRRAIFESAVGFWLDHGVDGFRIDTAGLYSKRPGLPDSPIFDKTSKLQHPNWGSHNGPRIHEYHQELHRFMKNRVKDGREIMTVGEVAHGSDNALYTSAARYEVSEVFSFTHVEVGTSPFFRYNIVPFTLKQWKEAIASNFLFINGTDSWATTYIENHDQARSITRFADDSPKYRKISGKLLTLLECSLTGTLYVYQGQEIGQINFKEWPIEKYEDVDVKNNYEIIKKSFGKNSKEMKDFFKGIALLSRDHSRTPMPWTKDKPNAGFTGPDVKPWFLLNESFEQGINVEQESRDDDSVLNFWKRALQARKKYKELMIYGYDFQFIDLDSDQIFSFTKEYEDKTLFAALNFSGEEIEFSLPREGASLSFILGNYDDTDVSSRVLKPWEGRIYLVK
measured_attribute: pKi
// field semantics: pKi = negative decimal log of concentration (mol/L)

-- ask Which measured pKi belongs to O=C(Oc1ccc2ccc(=O)oc2c1)c1ccc2[nH]c(-c3ccccc3O)nc2c1 , tested on α-glucosidase (Saccharomyces cerevisiae, UniProt P53341)?
-- reply 4.98

---

Exercise: for every item that follows, state its recorded melting point.

-- ask Can you look up the measured melting point of O=C(Oc1ccc2ccc(=O)oc2c1)c1ccc2[nH]c(-c3ccc(Br)cc3)nc2c1 [Compound 5d] for me?
-- reply 179 to 181 °C

-- ask Can you look up the measured melting point of Cc1ccc(-c2nc3cc(C(=O)Oc4ccc5ccc(=O)oc5c4)ccc3[nH]2)cc1 [Compound 5i] for me?
-- reply 193 to 195 °C

-- ask Can you look up the measured melting point of O=C(Oc1ccc2ccc(=O)oc2c1)c1ccc2[nH]c(-c3ccc(F)cc3)nc2c1 [Compound 5b] for me?
-- reply 195 to 197 °C

-- ask Can you look up the measured melting point of O=C(Oc1ccc2ccc(=O)oc2c1)c1ccc2[nH]c(-c3ccccc3O)nc2c1 [Compound 5k] for me?
-- reply 187 to 189 °C

-- ask Can you look up the measured melting point of O=C(Oc1ccc2ccc(=O)oc2c1)c1ccc2[nH]c(-c3ccc(F)cc3F)nc2c1 [Compound 5g] for me?
-- reply 201 to 203 °C

---

Exercise: for every item that follows, state its recorded pIC50.
system_under_test: α-Glucosidase (Saccharomyces cerevisiae, EC3.2.1.20) (Saccharomyces cerevisiae, UniProt P53341)
Construct: purchased Sigma-Aldrich
test_summary: biochemical
Format: biochemical
assay_conditions: supplement sheet IC50 values; unrounded, unit inferred
// field semantics: pIC50 = negative decimal log of concentration (mol/L)

-- ask Can you look up the measured pIC50 of O=C(Oc1ccc2ccc(=O)oc2c1)c1ccc2[nH]c(-c3cccc(Br)c3)nc2c1 for me?
-- reply 4.60

-- ask Can you look up the measured pIC50 of Cc1c(Cl)cccc1-c1nc2cc(C(=O)Oc3ccc4ccc(=O)oc4c3)ccc2[nH]1 for me?
-- reply 4.39

-- ask Can you look up the measured pIC50 of O=C(Oc1ccc2ccc(=O)oc2c1)c1ccc2[nH]c(-c3ccc(Br)cc3)nc2c1 for me?
-- reply 4.64
